Target: Bromodomain-containing protein 3 (Homo sapiens, UniProt Q15059)
Sequence (Q15059 whole entry): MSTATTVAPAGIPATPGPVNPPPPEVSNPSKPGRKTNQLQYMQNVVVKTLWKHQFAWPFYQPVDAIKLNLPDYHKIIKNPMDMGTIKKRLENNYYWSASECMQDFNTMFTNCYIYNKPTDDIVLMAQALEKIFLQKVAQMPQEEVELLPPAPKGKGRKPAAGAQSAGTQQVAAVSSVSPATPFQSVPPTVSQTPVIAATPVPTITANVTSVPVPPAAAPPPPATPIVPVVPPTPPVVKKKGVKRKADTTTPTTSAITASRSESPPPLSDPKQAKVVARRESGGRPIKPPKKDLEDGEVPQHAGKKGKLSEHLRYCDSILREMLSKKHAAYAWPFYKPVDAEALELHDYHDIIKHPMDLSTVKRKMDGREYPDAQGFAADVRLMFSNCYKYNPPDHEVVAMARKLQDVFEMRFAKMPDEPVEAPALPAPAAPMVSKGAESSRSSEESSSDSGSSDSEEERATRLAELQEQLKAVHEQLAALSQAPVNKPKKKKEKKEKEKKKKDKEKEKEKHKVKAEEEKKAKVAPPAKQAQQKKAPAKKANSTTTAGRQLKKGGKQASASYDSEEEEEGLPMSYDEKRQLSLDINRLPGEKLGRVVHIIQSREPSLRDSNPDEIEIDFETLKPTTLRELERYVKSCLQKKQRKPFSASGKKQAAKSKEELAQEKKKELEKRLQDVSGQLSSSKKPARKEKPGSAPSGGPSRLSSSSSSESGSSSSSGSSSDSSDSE
Assay: Inhibition of His-tagged BRD3-BD1 (unknown origin) incubated for 30 mins in presence of ATP by Alphascreen assay
observation_type: IC50 (nM)

1. O=c1cc(N2CCOCC2)oc2c(-c3ccc4c(c3)OCCO4)csc12
2. Cn1cc(-c2nc(N3CCOCC3)c3sc(CN4CCC(C(C)(C)O)CC4)cc3n2)c2cc[nH]c2c1=O
I would appreciate it if you could say which entry, 1 or 2 , has the lower IC50 value. Answer by quoting the chosen item's label.
2
(2: 32 nM, 1: 303 nM)

====

Molecular target: Serine/threonine-protein kinase mTOR (Homo sapiens, UniProt P42345)
observation_type: IC50 (nM)
Hi! Could you send only the number? It should be in nM, unit omitted.

IC50 for `O=c1cc(N2CCOCC2)oc2c(-c3ccc4c(c3)OCCO4)csc12` ?
599
